# tested_on: PepT1 (SLC15A1) (Mus musculus, UniProt Q9JIP7)
# Sequence (Q9JIP7 whole entry): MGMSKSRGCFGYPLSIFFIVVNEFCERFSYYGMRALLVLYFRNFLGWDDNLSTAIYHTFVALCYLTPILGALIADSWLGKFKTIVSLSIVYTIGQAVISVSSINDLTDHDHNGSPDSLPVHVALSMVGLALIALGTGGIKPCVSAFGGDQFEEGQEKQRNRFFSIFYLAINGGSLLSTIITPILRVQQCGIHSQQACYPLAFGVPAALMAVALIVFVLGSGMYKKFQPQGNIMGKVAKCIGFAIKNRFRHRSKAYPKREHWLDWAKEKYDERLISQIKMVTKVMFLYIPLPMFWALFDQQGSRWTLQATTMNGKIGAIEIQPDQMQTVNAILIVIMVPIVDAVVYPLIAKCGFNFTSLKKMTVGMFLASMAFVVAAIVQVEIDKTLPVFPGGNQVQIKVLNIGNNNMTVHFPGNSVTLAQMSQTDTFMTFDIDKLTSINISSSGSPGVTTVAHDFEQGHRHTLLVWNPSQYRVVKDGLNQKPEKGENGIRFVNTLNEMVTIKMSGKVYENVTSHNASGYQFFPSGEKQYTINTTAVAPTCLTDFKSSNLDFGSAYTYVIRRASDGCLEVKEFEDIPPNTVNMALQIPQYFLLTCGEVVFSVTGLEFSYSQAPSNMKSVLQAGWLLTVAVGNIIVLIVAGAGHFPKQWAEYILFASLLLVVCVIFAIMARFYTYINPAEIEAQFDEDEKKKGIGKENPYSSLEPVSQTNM
# test: Effective permeability of the compound assessed as PepT1-mediated drug uptake in wild type mouse jejunum at 100 uM by HPLC analysis
# Assay type: ADME
# condition_details: read-out: Peff
measured_quantity: Papp at 100 µM (×10⁻⁶ cm/s)
Give just the numeric value; ×10⁻⁶ cm/s need not be written.

compound	Papp at 100 µM (×10⁻⁶ cm/s)
Nc1nc2c(ncn2COCCO)c(=O)[nH]1	4

Now turn to the next compound.
What Papp at 100 µM value was documented for this compound, CC(C)[C@H](N)C(=O)OCCOCn1cnc2c(=O)nc(N)[nH]c21.Cl [VALACYCLOVIR HYDROCHLORIDE] ?
170
